Target: T1, human TREM2 expressed on cells (human, UniProt Q9NZC2 19-230)
T1 construct: BW5147.G.1.4 cells stably expressing human TREM2 together with Dap12, or endogenous TREM2 of primary human myeloid cells; also called huT2 BW; hTREM2 expressing cell line
T1 sequence: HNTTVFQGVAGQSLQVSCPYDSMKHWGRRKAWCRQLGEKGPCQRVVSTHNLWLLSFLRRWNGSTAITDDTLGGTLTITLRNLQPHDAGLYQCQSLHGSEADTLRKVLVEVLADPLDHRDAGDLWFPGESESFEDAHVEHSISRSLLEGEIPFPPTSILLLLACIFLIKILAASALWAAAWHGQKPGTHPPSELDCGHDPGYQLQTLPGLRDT
Experiment: FACS, hTREM2 BW cells
READOUT_KIND: cell binding (FOB)

# BINDER, READOUT_KIND, EXPERIMENTAL_VALUE
rows = [
    ("AL2p-h23 (antibody, human IgG1, V domains shown, humanized, human IgG1; Fab and IgG formats under one id) VH: QVQLVQSGAEVKKPGASLKISCKASGYAFSSSWMNWVRQAPGQGLEWIGRIYPGDGDTNYAQKFQGRATLTADTSTSTAYMELSSLRSEDTAVYYCARLLRNQPGESYAMDYWGQGALVTVSS VL: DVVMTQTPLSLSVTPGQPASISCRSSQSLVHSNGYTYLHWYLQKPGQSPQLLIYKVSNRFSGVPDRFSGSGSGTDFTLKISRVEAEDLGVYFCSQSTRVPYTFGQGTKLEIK", "cell binding (FOB)", 76),
]
